IC50 values for Purine nucleoside phosphorylase (Homo sapiens, UniProt P00491), compiled from several publications.
Molecular target: Purine nucleoside phosphorylase (Homo sapiens, UniProt P00491)
Sequence (P00491 whole entry): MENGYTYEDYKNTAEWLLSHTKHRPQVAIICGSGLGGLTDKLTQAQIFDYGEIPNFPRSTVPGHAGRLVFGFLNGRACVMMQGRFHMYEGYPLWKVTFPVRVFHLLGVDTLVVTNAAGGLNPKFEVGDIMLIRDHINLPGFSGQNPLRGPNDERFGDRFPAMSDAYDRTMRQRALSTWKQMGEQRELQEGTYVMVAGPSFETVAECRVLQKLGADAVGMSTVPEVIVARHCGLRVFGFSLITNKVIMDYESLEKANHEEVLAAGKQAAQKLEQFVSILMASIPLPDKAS
Attribute measured: IC50 (nM)

# count of solved cases: 3
For record Nc1nc2c(S)ncn(Cc3ccccc3)c-2n1 the listed IC50 is 131000

For record CCOC(=O)c1ccccc1NC(=O)Cn1c(=S)n(-c2ccccc2)c(=O)c2cc(C)ccc21 the listed IC50 is 159

For record COc1ccc(NC(=O)Cn2c(=S)n(-c3ccccc3)c(=O)c3cc(C)ccc32)cc1OC the listed IC50 is 338

P. COc1ccc(Cn2c(N)nc(O)c3nc(N)nc2-3)cc1
Q. Nc1nc(O)c2[nH]cc(CN3C[C@H](O)C[C@H]3CO)c2n1
Q. Please indicate which entry, P or Q , has the lower recorded IC50 value. In your reply, give the label of the chosen option.
A. Q
